Tested on: primary rat microglia
CONDITION SUMMARY: rat
Measured LPS % cell toxicity accompanies every entry in the list below.
Output spec: scalar in %, unitless text.

Below: 3 compounds and their reported LPS % cell toxicity.
COMPOUND: COC(=O)C1=C(C)NC(C)=C(C(=O)OCC(C)C)C1c1ccccc1[N+](=O)[O-] (stereo not drawn)
TESTED TARGET: primary rat microglia
LPS % cell toxicity [%]: 1

COMPOUND: CC1(C)C(C=C(Cl)Cl)C1C(=O)OCc1cccc(Oc2ccccc2)c1 (stereo not drawn)
TESTED TARGET: primary rat microglia
LPS % cell toxicity [%]: 0

COMPOUND: C[C@H]1C[C@@H]2[C@H]([C@@H](O)C[C@@]3(C)[C@H]2CC[C@]3(O)C(=O)CO)[C@@]2(C)C=CC(=O)C=C12 [Methylprednisolone, reference compound]
TESTED TARGET: primary rat microglia
LPS % cell toxicity [%]: 2

Then there is this compound:
-- ask Retrieve LPS % cell toxicity on primary rat microglia; query `CO[C@H]1O[C@@H]2O[C@@]3(C)CC[C@H]4[C@H](C)CC[C@@H]([C@H]1C)[C@@]24OO3`
-- reply 0

Reference source for all entries: patent US20210330611A1
